Assay: Volume of distribution in dual cannulated Wistar-Han rat at 1 mg/kg, iv administered as infusion for 30 mins and measured up to 24 hrs by LC-MS/MS analysis
Assay type: ADME, organism-based
Details: in vivo
reported.metric: Vd

INSERT INTO results (cpd_smiles, value_measured) VALUES
  ('Cc1cc(C)n(-c2cccc([C@H](CC(=O)O)CN3CC[C@@H](CCc4ccc5c(n4)NCCC5)C3)c2)n1.Cl', '2.1 L/kg');

* * *

# collection of IC50 values tested on Integrin alpha-V/beta-8 (Homo sapiens, UniProt P06756+P26012)
# Sequence (P06756 31-889 limits assumed): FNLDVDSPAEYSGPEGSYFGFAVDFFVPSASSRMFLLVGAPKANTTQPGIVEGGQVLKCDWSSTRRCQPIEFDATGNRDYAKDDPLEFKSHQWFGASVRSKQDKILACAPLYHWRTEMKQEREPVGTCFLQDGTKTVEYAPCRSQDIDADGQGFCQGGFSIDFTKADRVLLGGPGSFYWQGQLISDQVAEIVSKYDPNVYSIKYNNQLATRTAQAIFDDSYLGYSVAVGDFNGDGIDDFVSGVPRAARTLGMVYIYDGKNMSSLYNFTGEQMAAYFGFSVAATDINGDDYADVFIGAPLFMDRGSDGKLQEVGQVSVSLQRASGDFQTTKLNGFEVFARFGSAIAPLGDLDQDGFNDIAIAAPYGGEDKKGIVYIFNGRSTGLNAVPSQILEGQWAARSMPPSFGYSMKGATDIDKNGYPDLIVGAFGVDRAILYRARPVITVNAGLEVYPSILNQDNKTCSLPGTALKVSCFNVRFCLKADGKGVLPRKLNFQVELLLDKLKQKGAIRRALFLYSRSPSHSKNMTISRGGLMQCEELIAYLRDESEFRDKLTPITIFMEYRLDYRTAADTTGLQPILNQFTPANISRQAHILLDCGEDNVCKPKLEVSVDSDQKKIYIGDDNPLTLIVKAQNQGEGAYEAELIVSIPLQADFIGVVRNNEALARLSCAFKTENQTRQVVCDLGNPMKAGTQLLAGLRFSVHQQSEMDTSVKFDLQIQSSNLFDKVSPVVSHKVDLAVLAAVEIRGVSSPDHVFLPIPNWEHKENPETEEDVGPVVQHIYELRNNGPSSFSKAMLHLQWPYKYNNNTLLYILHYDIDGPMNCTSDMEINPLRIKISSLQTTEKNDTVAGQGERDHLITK
# Sequence (P06756 891-1048 limits assumed): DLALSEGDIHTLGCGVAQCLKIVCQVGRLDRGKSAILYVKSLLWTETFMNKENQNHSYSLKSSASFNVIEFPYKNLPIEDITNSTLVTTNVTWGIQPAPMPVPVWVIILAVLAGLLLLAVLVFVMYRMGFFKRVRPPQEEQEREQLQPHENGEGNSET
# Sequence (P26012 43-769 limits assumed): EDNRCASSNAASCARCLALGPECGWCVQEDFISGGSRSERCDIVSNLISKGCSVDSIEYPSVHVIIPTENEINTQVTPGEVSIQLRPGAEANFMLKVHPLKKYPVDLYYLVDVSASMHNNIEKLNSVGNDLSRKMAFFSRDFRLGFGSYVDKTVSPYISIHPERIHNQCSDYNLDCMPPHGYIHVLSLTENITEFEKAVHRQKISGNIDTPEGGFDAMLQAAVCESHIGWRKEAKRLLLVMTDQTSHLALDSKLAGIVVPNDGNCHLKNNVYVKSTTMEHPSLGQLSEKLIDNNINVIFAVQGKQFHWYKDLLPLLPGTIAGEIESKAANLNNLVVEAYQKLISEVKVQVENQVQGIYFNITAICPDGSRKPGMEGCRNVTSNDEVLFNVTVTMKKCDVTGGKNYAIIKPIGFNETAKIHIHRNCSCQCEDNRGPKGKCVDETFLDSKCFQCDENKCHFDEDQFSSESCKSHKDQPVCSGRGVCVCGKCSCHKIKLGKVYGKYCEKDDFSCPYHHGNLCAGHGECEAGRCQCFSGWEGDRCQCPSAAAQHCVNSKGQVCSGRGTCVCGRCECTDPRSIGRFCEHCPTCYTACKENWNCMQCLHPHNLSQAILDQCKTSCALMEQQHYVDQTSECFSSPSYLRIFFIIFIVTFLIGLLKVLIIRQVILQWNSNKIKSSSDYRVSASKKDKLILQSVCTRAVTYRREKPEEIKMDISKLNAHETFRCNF
reported.metric: IC50 (nM)

INSERT INTO measurements (compound, reported_metric, value_measured) VALUES
  ('Cc1cc(C)n(-c2cccc([C@H](CC(=O)[O-])C[N@+]3(C)CC[C@@H](CCc4ccc5c(n4)NCCC5)C3)c2)n1', 'IC50', 63.1),
  ('C[N+]1(C[C@@H](CC(=O)[O-])c2cccc(O[C@@H]3CCOC3)c2)CC[C@@H](CCc2ccc3c(n2)NCCC3)C1 (mixture of isomers)', 'IC50', 200),
  ('C[N+]1(C[C@@H](CC(=O)[O-])c2cccc(N3CCOCC3)c2)CC[C@@H](CCc2ccc3c(n2)NCCC3)C1 (mixture of isomers)', 'IC50', 126);

* * *

Molecular target: Integrin alpha-V/beta-8 (Homo sapiens, UniProt P06756+P26012)
pIC50: −log10 of the molar value.
Consider the following molecules and their measured pIC50 readings.
reported.metric: pIC50

INSERT INTO assay_data (molecule, reported_metric, value_measured) VALUES
  ('CC[N@+]1(C[C@@H](CC(=O)[O-])c2cccc(-n3nc(C)cc3C)c2)CC[C@@H](CCc2ccc3c(n2)NCCC3)C1', 'pIC50', 5.90),
  ('Cc1cc(C)n(-c2cccc([C@H](CC(=O)[O-])C[N@@+]3(C)CC[C@@H](CCc4ccc5c(n4)NCCC5)C3)c2)n1', 'pIC50', 7.10),
  ('Cc1ccnn1-c1cccc([C@H](CC(=O)[O-])C[N+]2(C)CC[C@@H](CCc3ccc4c(n3)NCCC4)C2)c1 (mixture of isomers)', 'pIC50', 7.00);

* * *

Molecular target: Integrin alpha-V/beta-5 (Homo sapiens, UniProt P06756+P18084)
Sequence (P06756 31-889 limits assumed): as the sequence (P06756 31-889 limits assumed) above
Sequence (P06756 891-1048 limits assumed): as the sequence (P06756 891-1048 limits assumed) above
Sequence (P18084 24-799 limits assumed): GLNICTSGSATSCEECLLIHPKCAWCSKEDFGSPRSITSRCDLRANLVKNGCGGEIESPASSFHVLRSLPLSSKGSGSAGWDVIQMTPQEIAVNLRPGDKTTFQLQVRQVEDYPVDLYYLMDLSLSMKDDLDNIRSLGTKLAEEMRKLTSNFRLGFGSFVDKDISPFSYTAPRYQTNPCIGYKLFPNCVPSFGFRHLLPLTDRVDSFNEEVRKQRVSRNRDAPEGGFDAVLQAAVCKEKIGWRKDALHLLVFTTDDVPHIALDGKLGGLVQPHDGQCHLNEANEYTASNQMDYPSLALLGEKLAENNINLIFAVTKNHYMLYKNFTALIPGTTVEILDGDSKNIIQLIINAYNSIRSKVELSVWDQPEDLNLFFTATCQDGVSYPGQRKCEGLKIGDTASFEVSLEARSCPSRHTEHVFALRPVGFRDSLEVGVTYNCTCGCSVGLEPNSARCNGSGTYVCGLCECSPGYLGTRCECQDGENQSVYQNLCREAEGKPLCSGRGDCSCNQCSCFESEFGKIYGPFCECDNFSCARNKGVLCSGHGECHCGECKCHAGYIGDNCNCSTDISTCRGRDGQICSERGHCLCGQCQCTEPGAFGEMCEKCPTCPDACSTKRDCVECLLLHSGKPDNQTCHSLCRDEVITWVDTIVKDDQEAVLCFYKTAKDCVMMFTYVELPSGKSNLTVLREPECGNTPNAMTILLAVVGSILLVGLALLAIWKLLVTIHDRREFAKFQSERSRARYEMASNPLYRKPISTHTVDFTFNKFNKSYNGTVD
pIC50: −log10 of the molar value.
reported.metric: pIC50

INSERT INTO measurements (molecule, reading_qualifier, value_measured) VALUES
  ('C[N+]1(C[C@@H](CC(=O)[O-])c2cccc(N3CCOCC3)c2)CC[C@@H](CCc2ccc3c(n2)NCCC3)C1 (mixture of isomers)', '=', 6.60),
  ('CC[N@+]1(C[C@@H](CC(=O)[O-])c2cccc(-n3nc(C)cc3C)c2)CC[C@@H](CCc2ccc3c(n2)NCCC3)C1', '<', 5.00),
  ('Cc1cc(C)n(-c2cccc([C@H](CC(=O)[O-])C[N@@+]3(C)CC[C@@H](CCc4ccc5c(n4)NCCC5)C3)c2)n1', '=', 6.30),
  ('Cc1ccnn1-c1cccc([C@H](CC(=O)[O-])C[N+]2(C)CC[C@@H](CCc3ccc4c(n3)NCCC4)C2)c1 (mixture of isomers)', '=', 6.20),
  ('Cc1cc(C)n(-c2cccc([C@H](CC(=O)[O-])C[N@+]3(C)CC[C@@H](CCc4ccc5c(n4)NCCC5)C3)c2)n1', '=', 6.00),
  ('C[N+]1(C[C@@H](CC(=O)[O-])c2cccc(O[C@@H]3CCOC3)c2)CC[C@@H](CCc2ccc3c(n2)NCCC3)C1 (mixture of isomers)', '=', 7.10);
